experimental endpoint: melting point

Known results for molecules:
>>> reported_value("Cc1cccc(NC(=O)NC(CC(=O)O)C(=O)N(CC(=O)OC(C)(C)C)c2ccccc2)c1 (racemic)")
"198 °C"
>>> reported_value("NCC(O)COc1ccc(OCC(O)CN)cc1 (stereo unspecified)")
"128 to 132 °C"
>>> reported_value("CN(C)S(=O)(=O)c1cc(C(=O)Cl)ccc1Cl")
"103 to 105 °C"
>>> reported_value("CC(=O)c1ccc(S(=O)(=O)NCCc2ccc(CC(=O)O)cc2)cc1")
"193 to 194 °C"
>>> reported_value("COc1ccc2c(c1)C(=O)Cc1c(cccc1C(=O)O)S2")
"157 to 160 °C"
>>> reported_value("COc1cc(CCCCCC2OC(=O)NC2=O)ccc1OCc1nc(-c2ccccc2)oc1C (stereo unspecified)")
"114 to 115 °C"
>>> reported_value("CC(C)S(=O)(=O)c1ccc2c(c1)nc(CC1(C)CCCC1)n2CC1CC1")
"122 °C"
>>> reported_value("CC(Cl)(Cl)C(NC(=O)c1ccc(C(F)(F)F)cc1)NC(=NS(=O)(=O)C(F)(F)F)Nc1cccnc1 (stereo unspecified)")
"214 to 215 °C"

List melting point for every entry below, keeping the order given.
1. CC(=O)C(C#N)c1ccc(F)c(F)c1 (stereo unspecified)
2. CN1CCN(C(=O)CC2c3ccccc3C(=O)N2c2ccc(Cl)cn2)CC1 (stereo unspecified)
3. COc1ccc(C(=O)O)cc1Oc1ccccc1
4. COc1cc(Nc2nccc(-c3ccc[nH]3)n2)cc(OC)c1OC

1: 147 to 152 °C; 2: 190 to 193 °C; 3: 186 to 187 °C; 4: 150 °C

====

So I've got a bunch of molecules here, and I need their melting point values.

Consider the following illustrative entries.
>>> reported_value("CCCCCCCCn1nc(C)c(N=Nc2c(O)cc(S(=O)(=O)N(CC)CC)c3ccccc23)c1O")
"122 to 123 °C"
>>> reported_value("COc1cc(Nc2c(C#N)cnc3cc4cc(OC)c(OCCN5CCOCC5)cc4cc23)c(Cl)cc1C")
"240 to 241 °C"

The record that follows has no melting point shown yet.
GET /values?readout=melting point&item= Nc1[nH]ncc1-c1cccc(N2CCOCC2)c1
166 to 168 °C

====

experimental endpoint: melting point

Use these answered entries as a reference point.
>>> reported_value("CC(C)(C)OC(=O)c1c(N)sc2c1CCOC2CN1C(=O)c2ccccc2C1=O (stereo not drawn)")
"227 to 230 °C"
>>> reported_value("COC(=O)c1[nH]c(C)c(C)c1OCC1CO1 (stereo not drawn)")
"85 to 87 °C"

Now for a further compound.
Query (compound): N#Cc1ccc(C(F)(F)C23CCCN2C(=O)N(c2cc(Cl)cc(Cl)c2)C3=O)cc1 (stereo not drawn) ; field requested: melting point
66 °C

====

Please go through the items and note down their melting point.
Residues, ends and D or L forms follow the SMILES beside them. *: point of attachment. Cbz = O=C(OCc1ccccc1)*

>>> reported_value("CCOC(=O)c1ccnc(OCc2nc(-c3ccco3)oc2C)c1")
"80 to 81 °C"

For every record below, what is its melting point?
1. CC(C)N1C(=O)c2cccc(Cl)c2N(C#N)S1(=O)=O
2. O=C(CCc1ccccc1)Nc1cc(C(=O)O)ccn1
3. O=C(O)Cc1coc2cc(OCc3ccccc3OCc3ccc(C(F)(F)F)cc3)ccc12
4. COC(=O)C(CO)NC(=O)C(Cc1c[nH]c2ccccc12)NC(=O)OCc1ccccc1 (stereo not drawn) (Cbz-Trp-Ser-OMe; configuration not given here)
5. O=C1c2c(-c3ccc(Cl)cc3)noc2CCC1CCCN1CCN(C(c2ccc(F)cc2)c2ccc(F)cc2)CC1 (centres undefined)
6. CCOc1nn(Cc2ccc(OCc3ccc(-c4ccccc4)nc3)cc2)cc1CCC(=O)O
7. Clc1cn2cc(Br)ccc2n1

123 to 124 °C
266 to 267 °C
126 to 127 °C
133 to 135 °C
150 to 152 °C
140 to 141 °C
155 to 159 °C

The origin of these recorded values is a melting point compilation (Tetko et al.; mined from patent text by program, amines drawn as free bases though some values may be those of a salt).
